Origin of values: ChEMBL document CHEMBL2203203

Readings of EC50 for the listed compounds
Target: Cannabinoid receptor 1 (Homo sapiens, UniProt P21554)
Sequence (P21554 whole entry): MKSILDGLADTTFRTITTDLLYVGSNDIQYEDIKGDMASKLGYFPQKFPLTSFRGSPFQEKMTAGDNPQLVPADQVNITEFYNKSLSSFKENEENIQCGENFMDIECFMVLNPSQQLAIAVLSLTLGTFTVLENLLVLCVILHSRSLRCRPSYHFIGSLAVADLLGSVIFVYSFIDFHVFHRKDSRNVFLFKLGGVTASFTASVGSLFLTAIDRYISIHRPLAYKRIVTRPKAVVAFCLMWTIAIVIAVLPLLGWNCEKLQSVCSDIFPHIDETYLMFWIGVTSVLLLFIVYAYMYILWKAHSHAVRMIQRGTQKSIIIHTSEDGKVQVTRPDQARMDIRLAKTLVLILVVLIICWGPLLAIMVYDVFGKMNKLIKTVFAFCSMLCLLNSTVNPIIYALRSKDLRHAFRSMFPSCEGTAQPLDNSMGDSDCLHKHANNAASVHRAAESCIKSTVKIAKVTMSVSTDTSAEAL
Experiment: Agonist activity at human CB1 receptor after 4 hrs by luciferase reporter gene assay
Experimental Readout: EC50

{"Compound": "COCCNC(=O)c1c(NC(=O)C2CCCN2C(=O)C2CC2)sc2c1CCCC2 (configuration not stated)", "Target Desc": "Cannabinoid receptor 1 (Homo sapiens, UniProt P21554)", "Experimental Readout": "EC50", "Result": "> 10 µM"}
{"Compound": "COCCNC(=O)c1c(NC(=O)c2ccccc2OC(F)(F)F)sc2c1CCOC2", "Target Desc": "Cannabinoid receptor 1 (Homo sapiens, UniProt P21554)", "Experimental Readout": "EC50", "Result": "> 10 µM"}
{"Compound": "COCC(C)(C)NC(=O)c1c(NC(=O)c2ccccc2OC(F)(F)F)sc2c1CCOC2", "Target Desc": "Cannabinoid receptor 1 (Homo sapiens, UniProt P21554)", "Experimental Readout": "EC50", "Result": "> 10 µM"}
{"Compound": "COc1ccccc1C(=O)Nc1sc2c(c1C(=O)N1CCOCC1)CCOC2", "Target Desc": "Cannabinoid receptor 1 (Homo sapiens, UniProt P21554)", "Experimental Readout": "EC50", "Result": "> 10 µM"}
{"Compound": "COCC(C)(C)NC(=O)c1c(NC(=O)c2ccccc2C(F)(F)F)sc2c1CCOC2", "Target Desc": "Cannabinoid receptor 1 (Homo sapiens, UniProt P21554)", "Experimental Readout": "EC50", "Result": "> 10 µM"}
{"Compound": "CC(C)(C)CC(=O)Nc1sc2c(c1C(=O)N1CCC(F)(F)CC1)C(C)(C)CC2", "Target Desc": "Cannabinoid receptor 1 (Homo sapiens, UniProt P21554)", "Experimental Readout": "EC50", "Result": "> 10 µM"}
{"Compound": "O=C(Nc1sc2c(c1C(=O)N1CCOCC1)CCOC2)c1cccc(OC(F)(F)F)c1", "Target Desc": "Cannabinoid receptor 1 (Homo sapiens, UniProt P21554)", "Experimental Readout": "EC50", "Result": "> 10 µM"}
{"Compound": "COCCNC(=O)c1c(NC(=O)c2ccccc2Cl)sc2c1CCC2", "Target Desc": "Cannabinoid receptor 1 (Homo sapiens, UniProt P21554)", "Experimental Readout": "EC50", "Result": "> 10 µM"}
{"Compound": "O=C(Nc1sc2c(c1C(=O)N1CCOCC1)CCOC2)c1ccc(Cl)cc1Cl", "Target Desc": "Cannabinoid receptor 1 (Homo sapiens, UniProt P21554)", "Experimental Readout": "EC50", "Result": "> 10 µM"}
{"Compound": "COCCNC(=O)c1c(NC(=O)CC(C)(C)C)sc2c1CCOC2", "Target Desc": "Cannabinoid receptor 1 (Homo sapiens, UniProt P21554)", "Experimental Readout": "EC50", "Result": "> 10 µM"}
{"Compound": "COCCNC(=O)c1c(NC(=O)CN2CCCCC2)sc2c1CCCC2", "Target Desc": "Cannabinoid receptor 1 (Homo sapiens, UniProt P21554)", "Experimental Readout": "EC50", "Result": "> 10 µM"}
{"Compound": "COC1CN(C(=O)c2c(NC(=O)CN3CCCCC3)sc3c2CCCC3)C1", "Target Desc": "Cannabinoid receptor 1 (Homo sapiens, UniProt P21554)", "Experimental Readout": "EC50", "Result": "> 10 µM"}
{"Compound": "COCCNC(=O)c1c(NC(=O)C2CCCC2)sc2c1CCOC2", "Target Desc": "Cannabinoid receptor 1 (Homo sapiens, UniProt P21554)", "Experimental Readout": "EC50", "Result": "> 10 µM"}
{"Compound": "O=C(Nc1sc2c(c1C(=O)N1CCOCC1)CCOC2)c1ccccc1C(F)(F)F", "Target Desc": "Cannabinoid receptor 1 (Homo sapiens, UniProt P21554)", "Experimental Readout": "EC50", "Result": "1.75 µM"}
{"Compound": "O=C(Nc1sc2c(c1C(=O)N1CC(F)(F)C1)CCOC2)c1c(F)cccc1C(F)(F)F", "Target Desc": "Cannabinoid receptor 1 (Homo sapiens, UniProt P21554)", "Experimental Readout": "EC50", "Result": "0.798 µM"}
{"Compound": "COCCNC(=O)c1c(NC(=O)c2ccccc2OC(F)(F)F)sc2c1CCC(F)(F)C2", "Target Desc": "Cannabinoid receptor 1 (Homo sapiens, UniProt P21554)", "Experimental Readout": "EC50", "Result": "> 10 µM"}
{"Compound": "COCCNC(=O)c1c(NC(=O)c2c(F)cccc2C(F)(F)F)sc2c1CCOC2", "Target Desc": "Cannabinoid receptor 1 (Homo sapiens, UniProt P21554)", "Experimental Readout": "EC50", "Result": "9.36 µM"}
{"Compound": "O=C(Nc1sc2c(c1C(=O)N1CC(F)(F)C1)CCOC2)c1ccccc1C(F)(F)F", "Target Desc": "Cannabinoid receptor 1 (Homo sapiens, UniProt P21554)", "Experimental Readout": "EC50", "Result": "0.296 µM"}
{"Compound": "O=C(Nc1sc2c(c1C(=O)NCC1CC1)CCOC2)c1ccccc1OC(F)(F)F", "Target Desc": "Cannabinoid receptor 1 (Homo sapiens, UniProt P21554)", "Experimental Readout": "EC50", "Result": "0.519 µM"}
{"Compound": "O=C(Nc1sc2c(c1C(=O)N1CCOCC1)CCOC2)c1ccccc1-c1ccccc1", "Target Desc": "Cannabinoid receptor 1 (Homo sapiens, UniProt P21554)", "Experimental Readout": "EC50", "Result": "> 10 µM"}
{"Compound": "O=C(Nc1sc2c(c1C(=O)N1CCOCC1)CCOC2)c1c(Cl)cccc1Cl", "Target Desc": "Cannabinoid receptor 1 (Homo sapiens, UniProt P21554)", "Experimental Readout": "EC50", "Result": "4.64 µM"}
{"Compound": "COCC(C)(C)NC(=O)c1c(NC(=O)c2c(F)cccc2C(F)(F)F)sc2c1CCOC2", "Target Desc": "Cannabinoid receptor 1 (Homo sapiens, UniProt P21554)", "Experimental Readout": "EC50", "Result": "> 10 µM"}
{"Compound": "COCCNC(=O)c1c(NC(=O)CC(C)(C)C)sc2c1CCCC2", "Target Desc": "Cannabinoid receptor 1 (Homo sapiens, UniProt P21554)", "Experimental Readout": "EC50", "Result": "1.91 µM"}
{"Compound": "O=C(Nc1sc2c(c1C(=O)N1CC(F)(F)C1)CCC(F)(F)C2)c1ccccc1OC(F)(F)F", "Target Desc": "Cannabinoid receptor 1 (Homo sapiens, UniProt P21554)", "Experimental Readout": "EC50", "Result": "0.139 µM"}
{"Compound": "CC(C)(C)C(=O)c1c(NC(=O)c2ccccc2C(F)(F)F)sc2c1CCOC2", "Target Desc": "Cannabinoid receptor 1 (Homo sapiens, UniProt P21554)", "Experimental Readout": "EC50", "Result": "> 10 µM"}
{"Compound": "O=C(Nc1sc2c(c1C(=O)NCC1CC1)CCC2)c1ccccc1Cl", "Target Desc": "Cannabinoid receptor 1 (Homo sapiens, UniProt P21554)", "Experimental Readout": "EC50", "Result": "> 10 µM"}
{"Compound": "O=C(Nc1sc2c(c1C(=O)N1CCOCC1)CCOC2)c1cccc(Cl)c1", "Target Desc": "Cannabinoid receptor 1 (Homo sapiens, UniProt P21554)", "Experimental Readout": "EC50", "Result": "> 10 µM"}
